# Tested on: KRAS patient-derived spheroids with HUVEC/MSC, viability;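 also: compound exposure lasted seven days before readout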
# procedureText: Anticancer human tumor 519858-162-T-J1-PDC patient-derived colon adenocarcinoma cell line growth inhibition [KRAS2]
# particulars: curve of first compound; second compound 0.316 µM
measuredQuantity: IC50

molecule="COC(=O)c1ccc2c(C(=Nc3ccc(N(C)C(=O)CN4CCN(C)CC4)cc3)c3ccccc3)c(O)[nH]c2c1 + CC1OCC2(CCN(c3cnc(Sc4ccnc(N)c4Cl)c(N)n3)CC2)C1N" result="> 10 µM"
molecule="COC(=O)c1ccc2c(C(=Nc3ccc(N(C)C(=O)CN4CCN(C)CC4)cc3)c3ccccc3)c(O)[nH]c2c1 + C=CC(=O)N1CCN(c2nc(OCC3CCCN3C)nc3c2CCN(c2cccc4cccc(C)c24)C3)CC1CC#N" result="> 10 µM"

Okay, next one:
Qu. I'm curious: which IC50 was measured for CC(C)n1nc(-c2ccc3oc(N)nc3c2)c2c(N)ncnc21 + C=CC(=O)N1CCN(c2nc(OCC3CCCN3C)nc3c2CCN(c2cccc4cccc(C)c24)C3)CC1CC#N tested on KRAS patient-derived spheroids with HUVEC/MSC, viability?;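 also: compound exposure lasted seven days before readout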
Ans. 0.0798 µM
